Source listed as PubChem BioAssay (NCI).

- System: DU-145 prostate
- test description: NCI tumour cell line growth inhibition, 48 h
property name: TGI

CC(C)(C)[Si](C)(C)OCC1CCC(n2cnc3c(N)ncnc32)O1 (stereo unspecified) ... > 100 µM
CCOC(=O)/C(C#N)=C1\c2c([nH]c(=S)[nH]c2=O)Oc2ccc3ccccc3c21 ... > 100 µM
O=C1CCC2CCC1C2 (stereo unspecified) ... > 100 µM
CNn1c(C)n[nH]c1=O ... > 100 µM
CN(C)CCCCN1c2ccccc2Sc2cc(N=[N+]=[N-])ccc21 ... 3.8 µM
Cc1nn(-c2ccccc2)c2[nH]c(=S)cnc12 ... > 100 µM

* * *

- System: CCRF-CEM leukemia
- test description: NCI tumour cell line growth inhibition, 48 h
Listing of recorded TGI by entry.
property name: TGI

O=C(Nc1ccc(F)cc1F)c1cc(Br)ccc1O ... 69.3 µM
COC1OC(C)C(O)CC1OS(=O)(=O)c1ccc(C)cc1 (centres undefined) ... > 100 µM
Cc1cccc(C)c1NC(=O)CCc1nnc2s/c(=C\c3ccc(Cl)cc3)c(=O)n12 ... > 100 µM
Nc1ccc2c3c(n(CCCCl)c(=O)c2c1)-c1cc2c(cc1C3=O)OCO2 ... > 100 µM

* * *

- System: NCI/ADR-RES ovarian
- test description: NCI tumour cell line growth inhibition, 48 h
property name: TGI

Cc1cc(I)cc(CN(C)CCN2CCCC2)c1O ... > 100 µM
CCOC(=O)[C@@H]1ON2O[C@H](OC3CCCC3(c3ccccc3)c3ccccc3)C[C@H]3OC(=O)[C@@H]1C32 (stereo partly specified) ... > 100 µM
C=CCN(CC=C)C(=O)c1cc(C)nc2c1c(=O)n(-c1ccccc1)c(=O)n2CC(O)CN1CCN(c2ncccn2)CC1 (stereo unspecified) ... > 100 µM
Fc1ccccc1-c1nn2c(C34CC5CC(CC(C5)C3)C4)nnc2s1 ... > 100 µM
CC(=O)NC1C(O)C(O)C(CO)OC1n1ncc(=O)[nH]c1=O (stereo unspecified) ... > 100 µM
COc1ccc2c(c1)CCc1[nH]c3ccccc3c1CCCC2 ... > 10 µM
COC(=O)C1=C(\c2ccccc2)c2ccccc2C(=O)N(C2CCCCC2)/C=C\1 ... > 100 µM
O=C(C1C(c2ccccc2)N1C(c1ccccc1)c1ccccc1)C1C(c2ccccc2)N1C(c1ccccc1)c1ccccc1 (stereo unspecified) ... > 100 µM
O=C1c2cc([N+](=O)[O-])ccc2-c2cccc(F)c21 ... > 100 µM
O=C(N/N=C/c1ccccc1Cl)c1ccccc1Nc1ccnc(C(F)(F)F)c1 ... 9.32 µM
COc1ccc(-c2ccc(/C=N/n3c(COc4ccc(Cl)cc4Cl)nn(CN4CCN(C)CC4)c3=S)o2)c([N+](=O)[O-])c1 ... 45.5 µM
CCOC(=O)C(NC(=O)CC(C)C)(Nc1ccc(S(=O)(=O)Nc2nc(C)cc(C)n2)cc1)C(F)(F)F (stereo unspecified) ... > 100 µM
CC1=C(C(=O)NCCc2ccccc2)CC(C(=O)NCCc2ccccc2)=C(C)N1 ... > 100 µM
c1cn2cc(-c3ccc4ncn(C5CCCCC5)c4c3)nc(-c3ccc4c(c3)ncn4C3CCCCC3)c2n1 ... 7.33 µM
Cc1nn(-c2ccccc2)c2[nH]c(=S)cnc12 ... > 100 µM
COc1ccc(CNc2c3ccccc3nc3ccc(OC)cc23)cc1 ... 7.52 µM
CCC1=CC2Cc3nc4cc(Cl)ccc4c(N)c3C(C1)C2 (stereo unspecified) ... 27.6 µM
CC(=O)OCC1OC(N2C(C)=C(C(C)=O)C(c3ccco3)C(C#N)=C2S)C(OC(C)=O)C(OC(C)=O)C1OC(C)=O (stereo unspecified) ... > 100 µM
CC1=NN(c2nc(N)nc(CSCc3nc(N)nc(N(C)C)n3)n2)C(C)(C)C1 ... > 100 µM
O=c1oc2ccccc2c(O)c1C(c1ccc(/C=C/c2ccccc2)cc1)c1c(O)c2ccccc2oc1=O ... 60.3 µM
CN(/N=C/c1ccccn1)C1=NCCCCN1 ... > 100 µM
CC1(C)CCCCCCC2OC2CCCCCC(C)(C)C1=O (stereo unspecified) ... > 88.2 µM
COc1cccc(-c2nc3sccn3c2-c2ccnc(NCCNS(=O)(=O)c3ccccc3)c2)c1 ... 23.9 µM
OC(C/C(=N\N1CCCCC1)c1cccs1)(C(F)(F)F)C(F)(F)F ... > 10 µM
O=P([O-])(O)OP(=O)([O-])O.[NH-][C@@H]1CCCC[C@H]1[NH-].[Pt+4] ... > 100 µM
C/C(=N/O)c1cccc(Nc2nc3ccc(Cl)cc3c3[nH]c4ccccc4c23)c1 ... 6.26 µM
N#CC(Nc1ccccc1)c1ccc(C(C#N)Nc2ccccc2)cc1 (stereo unspecified) ... > 100 µM
N#Cc1sc2c(c1OC(=O)c1cccs1)c(=O)n(-c1ccccc1)c(=S)n2-c1ccccc1 ... 50.1 µM
N#Cc1c(Cl)c2ccccc2n2c1nc1ccccc12 ... 65.6 µM
c1cc(OCCN2CCCCC2)ccc1CNc1ccc2nc(CCC3CCCCC3)[nH]c2c1 ... 5.74 µM
[O-][n+]1onc(-c2ccccc2)c1CN1CCOCC1 ... > 100 µM

* * *

- Test system: 786-0 renal
- test description: NCI tumour cell line growth inhibition, 48 h
Listing of recorded GI50 by entry.
property name: GI50

C[C@@H]1N=C(c2ccc(Br)cc2)Nc2nc3ccccn3c2C1=O ... 23.8 µM
NC(=N\N=C/c1cccc([N+](=O)[O-])c1)/C(N)=N\N=C/c1cccc([N+](=O)[O-])c1 ... > 100 µM
COc1ccc2c(c1)OC1=C(C(=O)OC1)C2c1cc(OC)c(OC)c(OC)c1 (centres undefined) ... 0.632 µM
CC1(C)CC(n2cnc(-c3ccc(F)cc3)c2-c2ccnc(N)n2)CC(C)(C)N1 ... > 25 µM

* * *

Listing of recorded TGI by entry.
- Test system: HCC-2998 colon
- test description: NCI tumour cell line growth inhibition, 48 h
property name: TGI

CC[O-].CC[O-].O=C1C(c2ccccc2)=C([O-])c2ccccc21.O=C1C(c2ccccc2)=C([O-])c2ccccc21.[Ti+4] ... > 100 µM
COc1cc(C2=C(C#N)C(N)OC3=C2COc2ccccc23)cc(OC)c1OC (stereo not given) ... 56.8 µM
CCCCCCCCC/C=C1\CC(CO)(COC(=O)C2CCCCC2)OC1=O (stereo not given) ... 42.3 µM
CCN(CC)C(=S)SNCc1ccc(S(N)(=O)=O)cc1 ... > 100 µM
COC(=O)C(=O)C(C(=O)C(=O)Nc1ccccc1C(C)=O)c1nc2ccc(C(=O)c3ccccc3)cc2[nH]c1=O (stereo not given) ... > 100 µM
Cc1cccc2[s+]snc12 ... > 100 µM
COC(=O)c1ccccc1/C=C1\Cc2cc(C)cc(C)c2C1=O ... > 100 µM
COC(=O)C12CC(c3ccccc31)C1C(=O)OC(=O)C12 (stereo not given) ... > 100 µM
Cn1c(NS(=O)(=O)c2ccccc2)nc2ccccc21 ... > 100 µM
O=C(C[n+]1ccccc1)N=N/C(C(=O)Nc1c(Cl)c(O)c2ccccc2c1O)=C1/C(=O)Oc2cc(O)ccc2C1=O ... 12.8 µM
COc1ccc2c(c1)N=C1CSC(c3cccc(Br)c3)N1C2 (stereo not given) ... 19.7 µM
COc1ccc(-c2nc3ncccn3c2/C=C/C(=O)c2cc(OC)c(OC)c(OC)c2)cc1 ... 2.92 µM
O=C(O)C1Cc2c([nH]c3ccccc23)C=N1 (stereo not given) ... > 100 µM
Nc1ccc2c3c(n(CCCCl)c(=O)c2c1)-c1cc2c(cc1C3=O)OCO2 ... > 100 µM
O=C(O)c1ccc2c(c1)CC1(C2)Cc2ccccc2C1=O (stereo not given) ... > 100 µM
COC(=O)C1[C@@H](C(=O)OC)C12C=Cc1ccccc1C=C2 (stereo not given in full) ... > 100 µM
COc1cccc(-c2nc3sccn3c2-c2ccnc(NCCNS(=O)(=O)c3ccccc3)c2)c1 ... > 100 µM
Cc1cc(NCCCCCCCCCC[n+]2c(C)cc(N)c3ccccc32)c2ccccc2n1 ... 6.01 µM
O=[N+]([O-])c1ccc(N=Nc2c(O)ccc3ccccc23)cc1 ... > 100 µM
COc1ccc(/C=C2\CCCCCC2=O)cc1 ... > 100 µM
Nc1cn(Cc2ccccc2)c2nc(/C=C3/C=CC=CC3=O)c(O)n12 ... > 100 µM
COC(=O)C12CC3CC(C1)CC(C(=O)OC)(C3)C2 ... > 100 µM
COc1ccc(C2=C(N)c3c(OC)cccc3C2=O)cc1 ... > 100 µM
C=C(Br)CN(C(C)=O)C1CCCCC1 ... > 100 µM
O=C1c2ccccc2C2(O)NC(=S)N(c3ccccc3)C12O (stereo not given) ... > 100 µM
